assayed_target: hT2R8 (Homo sapiens (Human), UniProt Q9NYW2)
Sequence (Q9NYW2 whole entry): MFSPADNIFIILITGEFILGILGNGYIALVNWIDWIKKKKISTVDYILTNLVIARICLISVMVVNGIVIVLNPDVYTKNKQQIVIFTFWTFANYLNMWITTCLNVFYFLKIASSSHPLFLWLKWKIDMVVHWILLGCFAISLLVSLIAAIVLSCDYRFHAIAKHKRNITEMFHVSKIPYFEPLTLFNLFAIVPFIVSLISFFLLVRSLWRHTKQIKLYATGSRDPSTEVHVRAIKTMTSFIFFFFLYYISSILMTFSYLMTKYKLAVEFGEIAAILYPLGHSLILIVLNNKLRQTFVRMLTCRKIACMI
run_description: hT2R8 antagonist high-throughput FLIPR assay, stable cell line with G16g44, agonist andrographolide
Assay type: cell-based
reported_conditions: unit uM; read-out: IC50 on hT2R08 bitter receptor
quantity: IC50 (µM)
Provide only the numeric value, understood in µM.

molecule | IC50 (µM)
Cc1noc(C)c1Cn1cc(N2C(=O)CN(Cc3ccccc3N)C2=O)cn1 | 0.02
Cc1noc(C)c1Cn1cc(N2C(=O)CN(Cc3cccc(C#N)c3)C2=O)cn1 | 1
Cc1noc(C)c1Cn1cc(N2C(=O)CN(Cc3ccc(C#N)cc3)C2=O)cn1 | 0.05
Cc1noc(C)c1Cn1cc(N2C(=O)CN(Cc3ccccc3F)C2=O)cn1 | 0.08
Cc1noc(C)c1Cn1cc(N2C(=O)CN(Cc3cccc(F)c3)C2=O)cn1 | 0.06
Cc1ccc(CN2CC(=O)N(c3cnn(Cc4c(C)noc4C)c3)C2=O)cc1 | 0.06

Please fill in: IC50 reported for COCCOc1ccccc1CN1CC(=O)N(c2cnn(Cc3c(C)noc3C)c2)C1=O = 0.1

Please fill in: IC50 reported for COc1ccccc1CN1CC(=O)N(c2cnn(Cc3c(C)noc3C)c2)C1=O = 0.06

Please fill in: IC50 reported for Cc1noc(C)c1Cn1cc(N2C(=O)CN(Cc3ccc(O)cc3)C2=O)cn1 = 0.06

Please fill in: IC50 reported for Cc1noc(C)c1Cn1cc(N2C(=O)CN(Cc3ccccc3C(F)(F)F)C2=O)cn1 = 0.2

Please fill in: IC50 reported for COCCOc1cccc(CN2CC(=O)N(c3cnn(Cc4c(C)noc4C)c3)C2=O)c1 = 0.07

* * *

assayed_target: hT2R61 (Homo sapiens (Human))
Sequence (P59537 whole entry): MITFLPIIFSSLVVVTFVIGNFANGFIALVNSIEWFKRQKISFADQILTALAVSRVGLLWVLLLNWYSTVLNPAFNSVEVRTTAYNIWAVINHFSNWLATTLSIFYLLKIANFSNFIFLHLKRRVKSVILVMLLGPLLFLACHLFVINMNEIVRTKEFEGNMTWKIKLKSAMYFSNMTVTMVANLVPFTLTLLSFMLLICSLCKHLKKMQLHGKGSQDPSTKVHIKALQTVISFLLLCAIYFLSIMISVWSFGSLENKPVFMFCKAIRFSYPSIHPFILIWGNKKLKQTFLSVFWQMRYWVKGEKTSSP
run_description: hT2R panel inhibition, transient HEK293 G16g44, agonist Aristolochic Acid 25 nM
Format: cell-based
reported_conditions: HEK293, compound at 25 μM; receptor activated to EC80 with agonist; read-out: inhibition of bitter receptor 61
quantity: inhibition at 25 µM

molecule | inhibition at 25 µM
CC(C)Oc1ccc(CN(Cc2ccccc2)S(=O)(=O)c2ccc(C(=O)O)cc2)cc1 | > 80%
CCN(C(=O)CN(C)S(=O)(=O)c1ccc2c(c1)n(C)c(=O)c(=O)n2C)c1cccc(C)c1 | 20 to 40%
Cn1c(=O)c2cc(S(=O)(=O)Nc3ccc4c(c3)OCO4)ccc2n(C)c1=O | 20 to 40%

Please fill in: inhibition at 25 µM reported for N#C/C(=C\c1ccco1)C(=O)Nc1nnc(-c2ccccc2)s1 = 40 to 60%

Please fill in: inhibition at 25 µM reported for Cc1ccccc1NS(=O)(=O)c1ccc2c(c1)c(=O)n(C)c(=O)n2C = 20 to 40%

Please fill in: inhibition at 25 µM reported for CCCOc1ccc(CN(Cc2ccccc2)S(=O)(=O)c2ccc(C(=O)O)cc2)cc1 = 60 to 80%

Please fill in: inhibition at 25 µM reported for Cn1c(=O)c(=O)n(C)c2cc(S(=O)(=O)Nc3ccc(Cc4ccccn4)cc3)ccc21 = 20 to 40%

Please fill in: inhibition at 25 µM reported for COc1ccc(OC)c(/C=C2\SC(=S)N(CCC(=O)O)C2=O)c1 = 40 to 60%

* * *

assayed_target: hT2R14 (Homo sapiens (Human))
Sequence (Q9NYV8 whole entry): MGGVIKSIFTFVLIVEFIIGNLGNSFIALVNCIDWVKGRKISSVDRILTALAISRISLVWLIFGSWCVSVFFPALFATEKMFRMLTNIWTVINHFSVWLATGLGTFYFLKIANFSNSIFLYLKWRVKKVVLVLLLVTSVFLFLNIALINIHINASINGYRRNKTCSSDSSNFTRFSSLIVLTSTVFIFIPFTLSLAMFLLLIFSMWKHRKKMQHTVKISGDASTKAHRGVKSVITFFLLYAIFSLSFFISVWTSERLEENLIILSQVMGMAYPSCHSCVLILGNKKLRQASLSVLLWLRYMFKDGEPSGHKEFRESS
run_description: hT2R14 antagonist high-throughput FLIPR assay, stable cell line with G16g44, agonist aristolochic acid
Format: cell-based
reported_conditions: Table D; read-out: hT2R14 IC50
Experimental: The inventors also used the automated fluorimetric […] system FLIPR using a slightly different protocol. A HEK293 cell line stably expressing G16gust44 was transfected with a hT2R expression plasmid, 24 hours later, the cells are loaded and analyzed on FLIPR. […]
quantity: pIC50
By convention, pIC50 is the negative base-10 log of a molar concentration.

molecule | pIC50
CCN(C(=O)CN(C)S(=O)(=O)c1ccc2c(c1)n(C)c(=O)c(=O)n2C)c1cccc(C)c1 | 4.83

Please fill in: pIC50 reported for Cc1nc(SCC(=O)N2CCOCC2)c2c(=O)n(C)c(=O)n(C)c2n1 = 6.00

Please fill in: pIC50 reported for Cc1nc(SCC(=O)N2CCCCC2)c2c(=O)n(C)c(=O)n(C)c2n1 = 6.53

Please fill in: pIC50 reported for Cc1cc2c(cc1S(=O)(=O)Nc1ccc(F)cc1)n(C)c(=O)c(=O)n2C = 4.90
